Experiment: NCI Yeast Anticancer Drug Screen. Data for the rad50 strain (AID 155);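 note: 0% = growth of vehicle-only cultures of the same strain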
Conditions: S. cerevisiae rad50 strain growth inhibition; at 5.0 µM (retest, dose inferred, filed as 0.5); active compounds read high
Compounds without any hit were thinned out: in the full panel of roughly 79,000, 15% have a hit.
growth inhibition values for the compounds below.
// units = %; emit number, no label

Retrieve growth inhibition measured for CN(C)C(=O)c1cc(Br)cc(-c2ccccc2)c1O and print it.
4

Retrieve growth inhibition measured for C=Nc1ccc2ccccc2c1Cc1c(O)ccc2ccccc12 and print it.
7

Retrieve growth inhibition measured for C=C(CN1CCCC1)C(=O)c1ccc(OC)cc1 and print it.
-6

Retrieve growth inhibition measured for CN(C)c1ccc(-c2c(C#N)c(-c3ccccc3)n(NS(=O)(=O)c3ccccc3)c(=O)c2C#N)cc1 and print it.
19

Retrieve growth inhibition measured for O=C(N/C(=C\c1ccc(Oc2ccc(Cl)c(Cl)c2)cc1)c1nc2ccccc2[nH]1)c1ccccc1 and print it.
29

Retrieve growth inhibition measured for CCOC(=O)NN(C(=O)OCC)c1ccc(N=Nc2ccc(OC)cc2)n1C and print it.
1

* * *

Experiment: NCI Yeast Anticancer Drug Screen. Data for the sgs1 mgt1 strain (AID 161);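 note: 0% = growth of cultures given vehicle only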
Conditions: S. cerevisiae sgs1 mgt1 strain, at 5.0 µM (retest, dose inferred, filed as 0.5), active compounds read high
Compounds without any hit were thinned out: in the full panel of roughly 79,000, 15% have a hit.
Reported endpoint: growth inhibition (%)
// units = %; emit number, no label

# annotated cases, reported growth inhibition shown
- Compound: "CCO/C=C1/N=C(c2cc(Cl)cc([N+](=O)[O-])c2)OC1=O"
  Obs value: -15
- Compound: "CCCC/C(=N/Nc1ccc([N+](=O)[O-])cc1)C(=O)O"
  Obs value: 14
- Compound: "CC(/C=C/c1cccs1)=N\\NC(=S)NCC(C)C"
  Obs value: 9
- Compound: "COc1cc(/C=C/C(=N\\NC(=O)c2ccccc2)c2sc(Nc3ccc(Cl)c(Cl)c3)nc2C)ccc1O"
  Obs value: 52
- Compound: "CCCCCCCCCCCCCCCCOc1ccc(S(=O)(=O)N/N=c2/sc3ccc(S(=O)(=O)O)cc3n2C)cc1C(=O)O"
  Obs value: 0

Retrieve growth inhibition measured for CCc1cccc(CC)c1NC1=C(Cl)C(=O)c2ccccc2C1=O and print it.
99

Retrieve growth inhibition measured for CC1(C)NC(=O)C(C)(C)NC1=O and print it.
0

Retrieve growth inhibition measured for CC(O)CCc1nc2ccccc2[nH]1 (stereo unspecified) and print it.
-1

Retrieve growth inhibition measured for Oc1cc(Br)cc2cccnc12 and print it.
98

Retrieve growth inhibition measured for CCOC(=O)C12CCSC1C1(C#N)C(C#N)=CC2(N=P(c2ccccc2)(c2ccccc2)c2ccccc2)n2c(=O)n(-c3ccccc3)c(=O)n21 (stereo unspecified) and print it.
28

Retrieve growth inhibition measured for CCCCCCCCCCN1CCN(C(=O)OCC)CC1 and print it.
67

* * *

Assay: NCI Yeast Anticancer Drug Screen. Data for the cln2 rad14 strain (AID 165);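 note: 0% = growth equal to vehicle treated cultures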
Conditions: S. cerevisiae cln2 rad14 strain, at 50.0 µM (retest, dose inferred, filed as 5.0), active compounds read high
Experimental: Growth inhibition of yeast strains with defined genetic alterations is measured as a screen for potential anti-cancer activity. Selected strains with alterations in DNA damage repair or cell cycle control were exposed to compounds and growth inhibition was measured relative to vehicle treated controls. The strain used in this assay is cln2 rad14
Compounds without any hit were thinned out: in the full panel of roughly 79,000, 15% have a hit.
growth inhibition values for the compounds below.
// units = %; emit number, no label

# annotated cases, reported growth inhibition shown
- Compound: "COc1ccc(Cc2ccccc2C(=O)O)c2ccccc12"
  Obs value: 96
- Compound: "O=C1OC(=O)c2cccc3cccc1c23"
  Obs value: 99
- Compound: "O=C(CC(=O)C(F)(F)F)c1ccc(-c2ccccc2)cc1"
  Obs value: 98

Read the next record carefully.
Retrieve growth inhibition measured for CC(C)(Oc1ccc(-c2cccc3ccccc23)cc1)C(=O)O and print it.
54
